Molecular target: TAS2R46 (Homo sapiens)
Construct: full ORF from human genomic DNA with N-terminal rhodopsin tag (first 20 residues), pCI; HEK293T with Galpha16/gust44
Sequence (P59540 whole entry): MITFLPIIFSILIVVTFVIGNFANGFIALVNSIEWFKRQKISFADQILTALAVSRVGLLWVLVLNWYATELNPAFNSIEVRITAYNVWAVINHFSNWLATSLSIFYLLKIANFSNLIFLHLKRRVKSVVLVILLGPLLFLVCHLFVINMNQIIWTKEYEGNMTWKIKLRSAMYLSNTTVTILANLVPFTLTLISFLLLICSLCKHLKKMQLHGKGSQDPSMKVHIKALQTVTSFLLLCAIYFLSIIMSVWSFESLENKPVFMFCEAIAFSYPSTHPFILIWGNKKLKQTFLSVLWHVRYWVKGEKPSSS
Assay: calcium imaging (Fluo-4) dose-response, HEK293T
ENDPOINT_LABEL: EC50 (µM)

{"columns": ["COMPOUND_SMILES", "READING_UNIT", "READOUT_NUMBER"],
 "data": [
  ["COc1cc(/C=C\\C(=O)O)cc(S(=O)(=O)Nc2ccc(C(=O)O)cc2)c1OC", "µM", 138]
]}

* * *

Biological target: TAS2R41 (Homo sapiens)
Construct: full ORF from human genomic DNA with N-terminal rhodopsin tag (first 20 residues), pCI; HEK293T with Galpha16/gust44
Sequence (P59536 whole entry): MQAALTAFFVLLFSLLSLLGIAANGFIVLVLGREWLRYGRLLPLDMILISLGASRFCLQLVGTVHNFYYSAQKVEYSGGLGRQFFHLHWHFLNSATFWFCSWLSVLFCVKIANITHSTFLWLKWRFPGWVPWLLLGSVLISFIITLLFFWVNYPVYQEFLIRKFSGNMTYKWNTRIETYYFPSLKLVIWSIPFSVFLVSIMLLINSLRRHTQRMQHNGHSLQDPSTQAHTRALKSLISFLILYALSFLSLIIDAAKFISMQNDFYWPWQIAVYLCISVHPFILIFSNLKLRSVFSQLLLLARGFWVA
Experiment: calcium imaging (Fluo-4) dose-response, HEK293T
ENDPOINT_LABEL: EC50 (mM)

{"columns": ["COMPOUND_SMILES", "READOUT_NUMBER"],
 "data": [
  ["N=C(N)NC(=N)Nc1ccccc1", 3.32]
]}

* * *

Biological target: TAS2R14 (Homo sapiens, UniProt Q9NYV8)
Construct: full ORF from human genomic DNA with N-terminal rhodopsin tag (first 20 residues), pCI; HEK293T with Galpha16/gust44
Sequence (Q9NYV8 whole entry): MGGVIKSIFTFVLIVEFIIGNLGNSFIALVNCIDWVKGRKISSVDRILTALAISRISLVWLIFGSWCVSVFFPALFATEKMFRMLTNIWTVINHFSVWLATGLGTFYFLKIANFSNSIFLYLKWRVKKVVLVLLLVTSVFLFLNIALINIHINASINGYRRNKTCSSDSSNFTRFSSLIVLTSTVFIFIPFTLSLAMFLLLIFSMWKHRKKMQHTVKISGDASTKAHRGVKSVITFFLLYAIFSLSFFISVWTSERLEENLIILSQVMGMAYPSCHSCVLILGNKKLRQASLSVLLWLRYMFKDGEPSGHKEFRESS
Test: calcium imaging (Fluo-4) dose-response, HEK293T
Format: cell-based
# key: entry, value: EC50

{"columns": ["MOLECULE", "EC50, µM"],
 "data": [
  ["N=C(N)NC(=N)Nc1ccccc1 [compound 1, 1]", 760],
  ["c1ccc(CC2=NCCN2)cc1 [ww3]", 1280],
  ["COc1cc(/C=C\\C(=O)O)cc(S(=O)(=O)Nc2ccc(C(=O)O)cc2)c1OC [compound 5, 5]", 232]
]}

* * *

Target: TAS2R10 (Homo sapiens, UniProt Q9NYW0)
Construct: full ORF from human genomic DNA with N-terminal rhodopsin tag (first 20 residues), pCI; HEK293T with Galpha16/gust44
Sequence (Q9NYW0 whole entry): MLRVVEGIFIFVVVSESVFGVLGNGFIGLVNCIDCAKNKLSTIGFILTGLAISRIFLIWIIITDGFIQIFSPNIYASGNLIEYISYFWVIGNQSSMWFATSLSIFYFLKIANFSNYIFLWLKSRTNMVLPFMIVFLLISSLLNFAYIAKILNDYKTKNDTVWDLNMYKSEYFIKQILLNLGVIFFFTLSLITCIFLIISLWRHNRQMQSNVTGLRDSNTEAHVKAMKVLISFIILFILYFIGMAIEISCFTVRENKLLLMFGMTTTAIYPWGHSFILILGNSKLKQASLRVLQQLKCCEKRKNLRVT
Assay: calcium imaging (Fluo-4) dose-response, HEK293T
Type: cell-based
Text: calcium imaging (Fluo-4) dose-response, HEK293T on TAS2R10

{"columns": ["MOLECULE", "EC50"],
 "data": [
  ["N=C(N)NC(=N)Nc1ccccc1 [compound 1, 1]", "1540 µM"],
  ["COc1cc(/C=C\\C(=O)O)cc(S(=O)(=O)Nc2ccc(C(=O)O)cc2)c1OC [compound 5, 5]", "4000 µM"]
]}
